These entries and their values trace back to patent US20110190196A1.

# Target system: ATP-binding cassette transporter A1 (ABCA1) (UniProt P41233 1-2261, limits assumed)
# Sequence (P41233 whole entry): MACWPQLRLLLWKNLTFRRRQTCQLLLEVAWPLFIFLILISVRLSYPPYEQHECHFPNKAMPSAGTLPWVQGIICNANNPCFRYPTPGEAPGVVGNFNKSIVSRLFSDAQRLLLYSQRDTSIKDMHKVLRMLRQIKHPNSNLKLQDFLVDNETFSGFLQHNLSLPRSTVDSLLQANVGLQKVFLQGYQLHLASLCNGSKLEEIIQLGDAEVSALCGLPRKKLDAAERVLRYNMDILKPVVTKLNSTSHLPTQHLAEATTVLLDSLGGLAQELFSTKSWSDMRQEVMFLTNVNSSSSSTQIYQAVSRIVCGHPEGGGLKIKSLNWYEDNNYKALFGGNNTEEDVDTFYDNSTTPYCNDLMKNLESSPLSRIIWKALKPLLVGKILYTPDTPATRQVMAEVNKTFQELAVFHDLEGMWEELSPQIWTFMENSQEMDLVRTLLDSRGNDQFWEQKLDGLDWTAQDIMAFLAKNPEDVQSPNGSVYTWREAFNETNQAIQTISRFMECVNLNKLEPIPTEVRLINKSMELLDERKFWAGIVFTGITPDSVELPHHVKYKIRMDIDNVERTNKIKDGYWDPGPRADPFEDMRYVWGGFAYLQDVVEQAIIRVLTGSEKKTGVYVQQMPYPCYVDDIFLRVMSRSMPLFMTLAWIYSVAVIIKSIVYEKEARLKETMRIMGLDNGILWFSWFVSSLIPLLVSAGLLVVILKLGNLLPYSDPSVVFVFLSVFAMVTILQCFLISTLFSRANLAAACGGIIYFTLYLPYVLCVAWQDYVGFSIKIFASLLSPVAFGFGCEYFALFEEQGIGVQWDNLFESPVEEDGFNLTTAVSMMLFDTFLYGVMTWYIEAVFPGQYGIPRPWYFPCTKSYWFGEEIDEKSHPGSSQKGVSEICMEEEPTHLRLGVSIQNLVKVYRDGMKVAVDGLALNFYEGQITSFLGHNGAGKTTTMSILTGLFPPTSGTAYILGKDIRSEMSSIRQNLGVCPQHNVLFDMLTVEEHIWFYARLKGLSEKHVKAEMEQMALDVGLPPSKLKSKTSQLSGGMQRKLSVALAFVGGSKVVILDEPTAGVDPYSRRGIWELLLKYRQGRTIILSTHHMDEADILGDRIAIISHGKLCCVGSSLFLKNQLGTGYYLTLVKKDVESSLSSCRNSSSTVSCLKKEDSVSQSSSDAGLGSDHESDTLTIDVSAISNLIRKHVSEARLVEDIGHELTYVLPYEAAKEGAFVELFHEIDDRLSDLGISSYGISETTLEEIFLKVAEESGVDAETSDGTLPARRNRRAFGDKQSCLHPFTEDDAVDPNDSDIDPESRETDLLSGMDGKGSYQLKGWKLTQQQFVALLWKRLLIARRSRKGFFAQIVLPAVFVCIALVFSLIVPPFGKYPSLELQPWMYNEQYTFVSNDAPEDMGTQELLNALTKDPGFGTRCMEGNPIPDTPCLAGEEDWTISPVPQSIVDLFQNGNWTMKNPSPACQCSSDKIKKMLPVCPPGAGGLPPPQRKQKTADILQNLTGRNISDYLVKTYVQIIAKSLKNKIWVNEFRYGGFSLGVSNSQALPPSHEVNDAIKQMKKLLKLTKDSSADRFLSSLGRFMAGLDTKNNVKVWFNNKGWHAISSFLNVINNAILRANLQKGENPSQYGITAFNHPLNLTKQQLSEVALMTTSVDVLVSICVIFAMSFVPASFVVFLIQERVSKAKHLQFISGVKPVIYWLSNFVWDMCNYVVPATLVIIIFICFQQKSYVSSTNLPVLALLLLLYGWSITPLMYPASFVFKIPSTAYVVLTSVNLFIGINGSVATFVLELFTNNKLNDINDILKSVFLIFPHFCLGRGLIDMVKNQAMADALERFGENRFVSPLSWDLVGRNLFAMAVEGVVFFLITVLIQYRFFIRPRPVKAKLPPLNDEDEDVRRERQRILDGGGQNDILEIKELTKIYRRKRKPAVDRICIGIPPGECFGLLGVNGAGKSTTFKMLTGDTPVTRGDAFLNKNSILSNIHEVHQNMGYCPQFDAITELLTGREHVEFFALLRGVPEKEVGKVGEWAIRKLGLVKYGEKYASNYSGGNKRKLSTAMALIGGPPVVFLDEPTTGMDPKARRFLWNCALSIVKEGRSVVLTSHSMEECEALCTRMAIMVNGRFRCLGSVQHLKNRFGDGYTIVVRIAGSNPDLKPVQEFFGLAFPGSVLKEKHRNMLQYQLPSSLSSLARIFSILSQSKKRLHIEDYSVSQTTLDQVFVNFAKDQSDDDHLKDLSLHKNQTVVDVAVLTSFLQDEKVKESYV
# Experiment summary: cell-based or functional assay
Measure: % cholesterol efflux/4 hours at 3.0 µg/ml (%)
Numbers only here, please. The scale is %.

Sample answers from the record:
ELRAKLEAWFEAFAEFFARF [N356-7] : 4.99
ELREKLEAWFELFAEFFARFK [N356-5] : 4.27
ELREKLEAWFEAFEEFFARFKS [N356-1] : 4.71
ELREKLEAWFELFAEFFARF [N356-6] : 4.07
ELREKLEAWRELFEEFFARFKS [N356-2] : 1.3

Req: Please give measured % cholesterol efflux/4 hours at 3.0 µg/ml of the following entry: ELREKLEAWFELFEEFFARFKS [N356-3]
Resp: 4.34

Req: Please give measured % cholesterol efflux/4 hours at 3.0 µg/ml of the following entry: ELREKLEAWFELFAEFFARFKS [N356-4]
Resp: 5.68
